Data origin, for the record: patent US12139499B2

# Tested on: Endogenous Huntingtin Protein
# Experimental Details: Endogenous Huntingtin Protein Assay (ELISA-based MSD electrochemiluminescence)
# Type: cell-based
# Stated Conditions: Table 1
pIC50: −log10 of the molar value.
Parameter: pIC50

Compound	Value
Cc1cn2cc(-c3cnc4nc(N(C)C5CCNCC5)sc4n3)cc(C)c2n1 [Compound 288]	6.30 to 7.00
Cc1cn2cc(-c3ccc4nc(N(C)C5CC6CCCC(C5)N6)sc4n3)cc(F)c2n1 (stereo not shown) [Compound 280]	≥ 7.00
CC1CC(c2nc3ccc(-c4ccc5nn(C)cc5c4)cc3s2)CC(C)N1 (stereo not shown) [Compound 190]	5.52 to 6.00

Pending compound:
# pIC50 lookup, item CN(c1nc2cnc(-c3cc(F)c4nn(C)cc4c3)cc2s1)C1CC2CCC(C1)N2 (stereo not shown) [Compound 205] ≥ 7.00

---

Can you tell me IC50 for the items I'm about to list?
# Tested on: Endogenous Huntingtin Protein
# Experimental Details: Endogenous Huntingtin Protein Assay (ELISA-based MSD electrochemiluminescence)
# Format: cell-based
# Stated Conditions: Table 1
# Protocol: Compounds of Formula (I) or Formula (II) were tested using the Meso Scale Discovery (MSD) Assay provided in International Application No. PCT/US2016/066042, filed on Dec. 11, 2016 and claiming priority to U.S. Provisional Application 62/265,652 filed on Dec. 10, 2015, the entire contents of which are incorporated herein by reference. The Endogenous Huntingtin Protein assay used in Example 1 was developed using the ELISA-based MSD electrochemiluminescence assay platform. […]

CN1CC(N(C)c2nc3nnc(-c4ccc(-c5cn[nH]c5)cc4O)cc3s2)C1 100 to 500 nM
Cc1cn2cc(-c3cc(F)c4nc(N(C)C5CCNCC5)sc4c3)cc2c(C)n1 ≤ 100 nM
CN(c1nc2nnc(-c3ccc(-c4cn[nH]c4)cc3O)cc2s1)C1CCNCC1 ≤ 100 nM

Pending molecule:
Query for Endogenous Huntingtin Protein: what IC50 does the record show for `Cc1cn2cc(-c3cc4sc(NC5CC(C)(C)NC(C)(C)C5)nc4cn3)cc(C#N)c2n1` ? ≤ 100 nM

---

Can you tell me IC50 for the items I'm about to list?
# System: Endogenous Huntingtin Protein
# Experimental Details: Endogenous Huntingtin Protein Assay (ELISA-based MSD electrochemiluminescence)
# Type: cell-based
# Stated Conditions: Table 1

Below: 4 compounds and their reported IC50.
Compound	Target System	IC50
CN1CC[C@@H]2CN(c3nc4nnc(-c5ccc(-c6cn[nH]c6)cc5O)cc4s3)[C@@H]2C1	Endogenous Huntingtin Protein	0.1 to 0.5 µM
CN(c1nc2cnc(-c3cc(C#N)c4nn(C)cc4c3)nc2s1)C1CC2CCC(C1)N2 (centres unmarked)	Endogenous Huntingtin Protein	≤ 0.1 µM
Cn1cc2cc(-c3cc(F)c4nc(OC5CCNCC5)sc4c3)cc(F)c2n1	Endogenous Huntingtin Protein	≤ 0.1 µM
CN(c1nc2c(F)cc(-c3ccc4nn(C)cc4c3)cc2s1)C1CC(C)(C)NC(C)(C)C1	Endogenous Huntingtin Protein	≤ 0.1 µM

Value sought for every listed compound: IC50.
1. Cc1cn2nc(-c3cc(F)c4nc(C5CCN6CCCC6C5)sc4c3)ccc2n1 (centres unmarked)
2. Cc1cn2cc(-c3cc4sc(OC5CC(C)(C)NC(C)(C)C5)nc4cn3)cc(C#N)c2n1
3. CN(c1nc2cnc(-c3ccc4nn(C)cc4c3)cc2s1)C1CCNCC1
4. CN(c1nc2ncc(-c3ccc(-c4cn[nH]c4)c(F)c3F)nc2s1)C1CC(C)(C)NC(C)(C)C1

1. ≤ 0.1 µM
2. ≤ 0.1 µM
3. 0.5 to 1 µM
4. 1 to 3 µM
